- System: normal NK cells expanded with K562-aAPC
- protocolNotes: drug sensitivity score (DSS) (DSS units); higher = more sensitive; extreme values may be limits of the assay
- cond: 72 h; IL-2 2.5 ng/mL
attributeMeasured: drug sensitivity score
Answers are plain numbers.

See these solved cases before continuing.
Cc1ccc(-c2cc(C(F)(F)F)nn2-c2ccc(S(N)(=O)=O)cc2)cc1 [Celecoxib] (max concentration tested 10000 nM) = 0.46
C=C1C[C@@H]2[C@H](CC[C@]3(C)C(=O)CC[C@@H]23)[C@@]2(C)C=CC(=O)C=C12 [Exemestane] (max concentration tested 10000 nM) = 3.07

// next item, drug sensitivity score requested
In plain terms, CC(C)[C@H]1C(=O)N[C@@H](CCCNC(=N)N)C(=O)NCC(=O)N[C@@H](CC(=O)O)C(=O)N[C@H](Cc2ccccc2)C(=O)N1C [Cilengitide] (max concentration tested 10000 nM) has a documented drug sensitivity score of 0
